Numbers sourced from the RNAGym collection of RNA variant scans (doi:10.7554/elife.80360).

B1: HDV Ribozyme (parent)
chain: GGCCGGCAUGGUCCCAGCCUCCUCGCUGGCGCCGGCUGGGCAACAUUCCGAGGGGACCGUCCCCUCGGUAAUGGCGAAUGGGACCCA

- Variants of: B1
- PROTOCOL: self-cleavage, relative activity (ratio to wild type); higher = more cleavage; co-transcriptional
MEASURE_NAME: self-cleavage

// solved cases for self-cleavage follow
[[record]]
mutant_label = "A70G C85A"
assay_value = 1.07

[[record]]
mutant_label = "C3A U12G"
assay_value = 0.241

[[record]]
mutant_label = "C22G G59A"
assay_value = 0.124


Request: Quick one: self-cleavage of C58U C66G ?
Response: 0.931

Request: What do you get for G54A A83G ?
Response: 0.692

Request: What do you get for G39U C66A ?
Response: 0.739

Request: What do you get for C26U G73C ?
Response: 0.492

Request: What do you get for G1U G68U ?
Response: 0.287

Request: What do you get for G2C C63U ?
Response: 0

Request: What do you get for A8U A78C ?
Response: 0.128

Request: What do you get for G5U C33A ?
Response: 0.898

Request: What do you get for A51C C84G ?
Response: 0.536

Request: What do you get for C18U G80A ?
Response: 0.196

Request: What do you get for G59A U69A ?
Response: 1.08

Request: What do you get for C7U G52A ?
Response: 0.68

Request: What do you get for G2U G29C ?
Response: 0.0252

Request: What do you get for U9G A71C ?
Response: 0.787

Request: What do you get for C57A A70U ?
Response: 1.25

Request: What do you get for C33A U79G ?
Response: 0.214

Request: What do you get for A71G U72A ?
Response: 0.573

Request: What do you get for G10C C75A ?
Response: 0.415
